Data provenance is PubChem BioAssay (NCI).

# Tested on: UO-31 renal
# METHOD: NCI tumour cell line growth inhibition, 48 h
# Lookup of reported TGI keyed by entry

{"columns": ["COMPOUND", "TGI"],
 "data": [
  ["O=[N+]([O-])c1ccc(COc2cccc3cccnc23)cc1", "68.1 µM"],
  ["NC(=O)SCC(=O)Nc1ccc2ncccc2c1", "> 100 µM"],
  ["Cc1cc(C)c(C(=O)/C=C/c2ccccc2)c(C)c1", "> 100 µM"],
  ["CC/C(CC(=O)CCC(=O)Nc1ccc(C)c(C)c1)=N\\NC(=O)C(N)=O", "> 100 µM"],
  ["CC(=O)OC1[C@H](n2ccnc2)C[C@H]2[C@@H]3CC=C4CC(N5CCCC5)CC[C@]4(C)[C@H]3CC[C@]12C (stereo partly specified)", "> 100 µM"]
]}

Query: Missing value: TGI, UO-31 renal, entry `Oc1c(CNCCNCc2cc(Cl)cc(Cc3ccccc3)c2O)cc(Cl)cc1Cc1ccccc1` . Fill in?
Result: 1.34 µM

Query: For `Cc1cc(NS(=O)(=O)c2ccc(NC(=O)COC(=O)c3cccc4c(=O)c5ccccc5[nH]c34)cc2)no1` then?
Result: > 100 µM

Query: For `COc1ccc(Oc2cc(NCCC(F)(F)F)c3ncc(-c4ccc(C(=O)NC5CC5)c(C)c4)n3n2)c(F)c1F` then?
Result: > 53.6 µM

Query: For O=C(CC1C(=O)Nc2ccccc2S1(=O)=O)Nc1cccc(Cl)c1 (stereo unspecified) then?
Result: 32.9 µM

Query: For `Cc1ccc(C(=O)N=Nc2c(O)[nH]c3ccc(Cl)cc23)cc1` then?
Result: > 50 µM

Query: For `NC(N)=NS(=O)(=O)c1ccc(NC(=O)c2ccc3nc4ccccc4c(N)c3c2)cc1` then?
Result: > 100 µM

Query: For Clc1cccc2c1OCC1C(c3ccccc3)=NN(c3ccccc3)C21 (stereo unspecified) then?
Result: > 100 µM

Query: For `Nc1cc2nc3ccccc3oc-2cc1=O` then?
Result: 10.4 µM

Query: For `Cn1c(C(C)(C)OC(=O)Oc2ccccc2)cnc1[N+](=O)[O-]` then?
Result: > 100 µM

Query: For `CN(C)Cc1cc(C(=O)/C=C/c2ccc(F)cc2)cc(CN(C)C)c1O` then?
Result: 38.9 µM

Query: For `Cc1ccc(S(=O)(=O)N2CCCSCCN(S(=O)(=O)c3ccc(C)cc3)CCCSCC2)cc1` then?
Result: > 100 µM

Query: For `CC(=O)OC(=C(C#N)C#N)c1nccnc1C(C)=O` then?
Result: > 20 µM

Query: For `O=C1CCCN1CCCN=c1cc2n(-c3ccc(Cl)cc3)c3ccccc3nc-2cc1Nc1ccc(Cl)cc1` then?
Result: 51.3 µM

Query: For `CC1(C)CC(=O)c2c(ccc(C(=O)C[C@@H](N)CO)c2N)O1` then?
Result: > 100 µM

Query: For CCCCCSC1C2C(=O)C(Br)=CC13CCNc1c(O)c4c5c(c13)=[N+]2CCC=5C=N4 (stereo unspecified) then?
Result: 4.42 µM

Query: For COC(=O)[C@@H](OC)[C@@H]1Cc2cc3cc(OC4CC(OC5CC(O)C(O)C(C)O5)C(O)C(C)O4)c(C)c(O)c3c(O)c2C(=O)[C@H]1OC1CC(OC2CC(OC3CC(C)(O)C(O)C(C)O3)C(O)C(C)O2)C(O)C(C)O1 (stereo partly specified) then?
Result: 0.12 µM
